target: Serine/threonine-protein kinase ULK1 (Homo sapiens); assay: Inhibition of ATG13 binding to full-length ULK1 (unknown origin) expressed in HEK293T cells preincubated for 15 mins followed by human C-terminal FLAG-tagged ATG13 addition measured after 30 mins by Alphascreen assay
Sequence (O75385 whole entry): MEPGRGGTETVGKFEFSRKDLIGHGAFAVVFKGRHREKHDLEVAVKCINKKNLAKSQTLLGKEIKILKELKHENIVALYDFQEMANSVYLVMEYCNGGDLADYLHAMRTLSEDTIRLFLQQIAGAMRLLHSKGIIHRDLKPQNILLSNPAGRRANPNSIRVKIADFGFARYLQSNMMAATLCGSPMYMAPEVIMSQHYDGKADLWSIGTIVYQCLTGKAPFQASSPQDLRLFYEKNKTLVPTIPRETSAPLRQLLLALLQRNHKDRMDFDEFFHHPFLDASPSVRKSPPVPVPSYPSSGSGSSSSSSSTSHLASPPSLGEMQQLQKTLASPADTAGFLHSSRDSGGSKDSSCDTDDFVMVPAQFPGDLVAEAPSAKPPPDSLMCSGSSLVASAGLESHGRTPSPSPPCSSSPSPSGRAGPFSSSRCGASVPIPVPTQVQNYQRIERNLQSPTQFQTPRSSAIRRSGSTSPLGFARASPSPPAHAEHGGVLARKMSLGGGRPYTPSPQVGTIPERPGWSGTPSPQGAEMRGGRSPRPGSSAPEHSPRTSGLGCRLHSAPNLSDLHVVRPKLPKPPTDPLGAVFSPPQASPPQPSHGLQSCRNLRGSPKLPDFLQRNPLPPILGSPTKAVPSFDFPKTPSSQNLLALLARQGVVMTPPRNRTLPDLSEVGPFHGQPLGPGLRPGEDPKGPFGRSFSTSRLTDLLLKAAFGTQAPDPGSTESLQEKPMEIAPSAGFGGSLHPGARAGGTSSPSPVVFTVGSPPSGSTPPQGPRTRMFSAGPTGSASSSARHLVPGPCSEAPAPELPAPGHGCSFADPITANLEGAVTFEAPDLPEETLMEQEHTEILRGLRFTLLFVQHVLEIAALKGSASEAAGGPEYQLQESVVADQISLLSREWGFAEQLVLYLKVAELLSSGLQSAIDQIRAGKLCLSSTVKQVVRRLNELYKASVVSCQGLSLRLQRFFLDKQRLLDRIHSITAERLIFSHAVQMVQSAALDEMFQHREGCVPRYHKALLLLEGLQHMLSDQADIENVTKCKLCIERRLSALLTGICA
log10(IC50): recorded values
Recall that a logarithmic scale is used here: each number is log10 of IC50 in µM.

compound	log10(IC50)
O=C(Nc1ccc2[nH]nc(Nc3cccc4ccccc34)c2c1)C1CCN1 (stereo not given)	0.69

Problem: Report log10(IC50) for Nc1n[nH]c2ccc(NC(=O)C3CCNCC3)cc12 please.
Solution: -0.25

Problem: Report log10(IC50) for NC1CCCC(C(=O)Nc2ccc3[nH]nc(NC(=O)c4ccccc4)c3c2)C1 (stereo not given) please.
Solution: -0.62

Problem: Report log10(IC50) for O=C(Nc1ccc2[nH]nc(Nc3cccc4ccccc34)c2c1)C1CCNCC1 please.
Solution: -0.50

Problem: Report log10(IC50) for NC1CCCC(C(=O)Nc2ccc3[nH]nc(Nc4ccnc5ccccc45)c3c2)C1 (stereo not given) please.
Solution: -0.62

Problem: Report log10(IC50) for Nc1cccc(C(=O)Nc2ccc3[nH]nc(N)c3c2)c1 please.
Solution: 1.26

Problem: Report log10(IC50) for COc1ccccc1Nc1n[nH]c2ccc(NC(=O)C3CCCC(N)C3)cc12 (stereo not given) please.
Solution: -0.96

Problem: Report log10(IC50) for COc1ccc(CNc2n[nH]c3ccc(NC(=O)C4CCCC(N)C4)cc23)cc1 (stereo not given) please.
Solution: -0.32

Problem: Report log10(IC50) for COC(=O)c1cccc(Nc2n[nH]c3ccc(NC(=O)C4CCCC(N)C4)cc23)c1 (stereo not given) please.
Solution: -0.74

Problem: Report log10(IC50) for CN(C)C1CCCC(C(=O)Nc2ccc3[nH]nc(Nc4cccc5ccccc45)c3c2)C1 (stereo not given) please.
Solution: 0.63

Problem: Report log10(IC50) for NC1CCCC(C(=O)Nc2ccc3[nH]nc(Nc4cccc(C(F)(F)F)c4)c3c2)C1 (stereo not given) please.
Solution: -0.54

Problem: Report log10(IC50) for Nc1n[nH]c2ccc(NC(=O)C3CCCNC3)cc12 (racemic) please.
Solution: -0.17

Problem: Report log10(IC50) for NC1CCCC(C(=O)Nc2ccc3[nH]nc(Nc4ccc(Br)cc4)c3c2)C1 (stereo not given) please.
Solution: -0.38

Problem: Report log10(IC50) for O=C(Nc1ccc2[nH]nc(Nc3cccc4ccccc34)c2c1)C1CCOCC1 please.
Solution: 0.26

Problem: Report log10(IC50) for NC1CCCC(C(=O)Nc2ccc3[nH]nc(Nc4cccc5cnccc45)c3c2)C1 (stereo not given) please.
Solution: -1.40

Problem: Report log10(IC50) for Nc1n[nH]c2ccc(NC(=O)[C@H]3CC[C@H](N)CC3)cc12 please.
Solution: 1.15

====

assay: Half life in human microsomes; assay type: ADME, Microsome
property: half-life (h)
Supply the numeric figure in h, leaving out any unit text.

Problem: Report half-life for N[C@H]1CCC[C@@H](C(=O)Nc2ccc3[nH]nc(Nc4cccc5ccccc45)c3c2)C1 please.
Solution: 3.73

====

target: Serine/threonine-protein kinase ULK1 (Homo sapiens); assay: Inhibition of ATG13 binding to full-length ULK1 (unknown origin) expressed in HEK293T cells preincubated for 15 mins followed by human C-terminal FLAG-tagged ATG13 addition measured after 30 mins by Alphascreen assay
pIC50: recorded values
pIC50 is defined as minus the log10 of a concentration measured in mol/L.

# count of solved cases: 2
compound	value.measured
Nc1n[nH]c2ccc(NC(=O)C3CCCCN3)cc12 (racemic)	6.08
NC1CCCC(C(=O)Nc2ccc3[nH]nc(Nc4ccccc4)c3c2)C1 (centres undefined)	5.56

Proceed to the following item.
Problem: Report pIC50 for Nc1n[nH]c2ccc(NC(=O)[C@H]3CC[C@@H](N)CC3)cc12 please.
Solution: 5.83
